test_system: FGFR3 V555M (Homo sapiens, UniProt P22607, V555M)
Construct: purchased Signalchem F06-12GG
Sequence (P22607 397-806 V555M limits assumed): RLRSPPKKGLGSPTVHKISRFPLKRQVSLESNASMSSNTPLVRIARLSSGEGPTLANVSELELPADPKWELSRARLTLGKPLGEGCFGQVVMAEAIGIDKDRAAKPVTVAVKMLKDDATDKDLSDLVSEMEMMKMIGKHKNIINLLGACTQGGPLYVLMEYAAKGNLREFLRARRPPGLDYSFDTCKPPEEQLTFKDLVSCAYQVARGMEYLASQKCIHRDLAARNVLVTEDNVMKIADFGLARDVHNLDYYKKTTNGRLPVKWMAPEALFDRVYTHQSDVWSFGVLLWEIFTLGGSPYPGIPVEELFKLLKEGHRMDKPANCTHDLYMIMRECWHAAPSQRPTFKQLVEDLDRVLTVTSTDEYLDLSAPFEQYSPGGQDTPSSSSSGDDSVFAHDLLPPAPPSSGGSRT
protocol_description: Assay I: inhibitory activity against FGFR mutants (HTRF KinEASE-TK)
Format: biochemical
study_conditions: ATP 20 μM, substrate TK 1 μM
measure_name: IC50 (nM)
Express it in nM; write the number only.

A selection of reference data follows.
>  <molecule>
CC(Oc1ccc2[nH]nc(-c3nc4c([nH]3)CN(C(=O)CN3CCOCC3)C4)c2c1)c1c(Cl)cncc1Cl (stereo not shown) [Compound 13]

>  <test_system>
FGFR3 V555M (Homo sapiens, UniProt P22607, V555M)

>  <IC50 (nM)>
0.22

$$$$
>  <molecule>
CC(Oc1ccc2[nH]nc(-c3nc4c([nH]3)CN(C(=O)C3CC3)C4)c2c1)c1c(Cl)cncc1Cl (stereo not shown) [Compound 25]

>  <test_system>
FGFR3 V555M (Homo sapiens, UniProt P22607, V555M)

>  <IC50 (nM)>
0.26

$$$$
>  <molecule>
CC(Oc1ccc2[nH]nc(-c3nc4c([nH]3)CN(C(=O)CN3CCC(O)C3)C4)c2c1)c1c(Cl)cncc1Cl (stereo not shown) [Compound 31]

>  <test_system>
FGFR3 V555M (Homo sapiens, UniProt P22607, V555M)

>  <IC50 (nM)>
0.1

$$$$
>  <molecule>
CC(Oc1ccc2[nH]nc(-c3nc4c([nH]3)CN(C(=O)C3CC(O)C3)C4)c2c1)c1c(Cl)cncc1Cl (stereo not shown) [Compound 26]

>  <test_system>
FGFR3 V555M (Homo sapiens, UniProt P22607, V555M)

>  <IC50 (nM)>
0.13

$$$$
>  <molecule>
CC(Oc1ccc2[nH]nc(-c3nc4c([nH]3)CN(S(C)(=O)=O)C4)c2c1)c1c(Cl)cncc1Cl (stereo not shown) [Compound 16]

>  <test_system>
FGFR3 V555M (Homo sapiens, UniProt P22607, V555M)

>  <IC50 (nM)>
0.35

$$$$

Reported IC50 for CCS(=O)(=O)N1Cc2nc(-c3n[nH]c4ccc(OC(C)c5c(Cl)cncc5Cl)cc34)[nH]c2C1 (stereo not shown) [Compound 28] was 0.52

For reference, reported IC50 for C[C@@H](Oc1ccc2[nH]nc(-c3nc4c([nH]3)CN(C(=O)CN3CCC(C#N)C3)C4)c2c1)c1c(Cl)cncc1Cl (stereo partly shown) [Compound 49] stands at 0.19

* * *

test_system: FGFR3 V555M (Homo sapiens, UniProt P22607, V555M)
Construct: purchased Signalchem F06-12GG
protocol_description: Assay I: inhibitory activity against FGFR mutants (HTRF KinEASE-TK)
Assay type: biochemical
study_conditions: ATP 20 μM, substrate TK 1 μM
Quick reference for IC50 among some compounds
Reply numerically in nM, unit not repeated.

>  <compound>
C[C@@H](Oc1ccc2[nH]nc(-c3nc4c([nH]3)CN(C3CCN(S(C)(=O)=O)C3)C4)c2c1)c1c(Cl)cncc1Cl (stereo partly drawn) [Compound 39]

>  <test_system>
FGFR3 V555M (Homo sapiens, UniProt P22607, V555M)

>  <measure_name>
IC50

>  <observed_measurement>
1.4

$$$$
>  <compound>
CC(Oc1ccc2[nH]nc(-c3nc4c([nH]3)CN(C3CCN(C)CC3)CC4)c2c1)c1c(Cl)cncc1Cl (stereo not drawn) [Compound 4]

>  <test_system>
FGFR3 V555M (Homo sapiens, UniProt P22607, V555M)

>  <measure_name>
IC50

>  <observed_measurement>
0.16

$$$$
>  <compound>
CNC(=O)N1Cc2nc(-c3n[nH]c4ccc(O[C@H](C)c5c(Cl)cncc5Cl)cc34)[nH]c2C1 [Compound 33]

>  <test_system>
FGFR3 V555M (Homo sapiens, UniProt P22607, V555M)

>  <measure_name>
IC50

>  <observed_measurement>
0.46

$$$$

IC50 on FGFR3 V555M (Homo sapiens, UniProt P22607, V555M) for C[C@@H](Oc1ccc2[nH]nc(-c3nc4c([nH]3)CN(C3CCN(C)C3)C4)c2c1)c1c(Cl)cncc1Cl (stereo partly drawn) [Compound 36] is 0.31

Measured on FGFR3 V555M (Homo sapiens, UniProt P22607, V555M), COC(=O)N1Cc2nc(-c3n[nH]c4ccc(OC(C)c5c(Cl)cncc5Cl)cc34)[nH]c2C1 (stereo not drawn) [Compound 17] has a documented IC50 of 0.21

Observed IC50, FGFR3 V555M (Homo sapiens, UniProt P22607, V555M), C[C@@H](Oc1ccc2[nH]nc(-c3nc4c([nH]3)CN(C(=O)CN3CCCC3)C4)c2c1)c1c(Cl)cncc1Cl [Compound 40] : 0.26

Short answer on FGFR3 V555M (Homo sapiens, UniProt P22607, V555M) for CC(Oc1ccc2[nH]nc(-c3nc4c([nH]3)CN(C3CCN(C)CC3)C4)c2c1)c1c(Cl)cncc1Cl (stereo not drawn) [Compound 3] , IC50: 0.67

Entry CC(Oc1ccc2[nH]nc(-c3nc4c([nH]3)CN(CCN3CCOCC3)C4)c2c1)c1c(Cl)cncc1Cl (stereo not drawn) [Compound 12] ; assay system FGFR3 V555M (Homo sapiens, UniProt P22607, V555M); IC50 recorded at 0.21

The observed IC50 for CC(Oc1ccc2[nH]nc(-c3nc4c([nH]3)CN(C(=O)N3CCOCC3)C4)c2c1)c1c(Cl)cncc1Cl (stereo not drawn) [Compound 8] when tested with FGFR3 V555M (Homo sapiens, UniProt P22607, V555M) stands at 0.45

* * *

test_system: FGFR2 V564F (Homo sapiens, UniProt P21802, V564F)
Construct: purchased Signalchem F05-12FG
Sequence (P21802 22-821 V564F): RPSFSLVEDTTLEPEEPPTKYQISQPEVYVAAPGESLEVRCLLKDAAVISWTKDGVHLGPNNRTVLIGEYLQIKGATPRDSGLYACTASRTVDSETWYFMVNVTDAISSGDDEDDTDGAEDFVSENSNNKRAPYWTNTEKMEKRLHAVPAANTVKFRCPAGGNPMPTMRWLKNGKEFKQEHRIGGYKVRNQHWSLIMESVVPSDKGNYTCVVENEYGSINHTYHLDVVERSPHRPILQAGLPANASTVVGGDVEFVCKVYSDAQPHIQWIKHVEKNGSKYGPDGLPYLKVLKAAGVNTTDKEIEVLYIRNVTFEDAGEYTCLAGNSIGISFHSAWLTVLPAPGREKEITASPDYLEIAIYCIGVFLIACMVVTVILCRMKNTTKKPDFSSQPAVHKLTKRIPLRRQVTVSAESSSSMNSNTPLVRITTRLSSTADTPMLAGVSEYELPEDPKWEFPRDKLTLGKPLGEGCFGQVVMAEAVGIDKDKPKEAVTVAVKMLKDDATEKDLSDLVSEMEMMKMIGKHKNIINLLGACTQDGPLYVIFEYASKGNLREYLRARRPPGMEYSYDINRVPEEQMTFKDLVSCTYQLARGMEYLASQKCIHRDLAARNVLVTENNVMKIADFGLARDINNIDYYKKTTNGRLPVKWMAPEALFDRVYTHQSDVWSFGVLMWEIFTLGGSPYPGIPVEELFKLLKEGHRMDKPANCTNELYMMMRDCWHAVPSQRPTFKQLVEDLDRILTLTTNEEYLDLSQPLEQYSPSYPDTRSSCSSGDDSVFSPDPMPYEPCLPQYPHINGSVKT
protocol_description: Assay I: inhibitory activity against FGFR mutants (HTRF KinEASE-TK)
Type: biochemical
study_conditions: ATP 10 μM, substrate TK 1 μM
hey, just use t if measured IC50 is less than 0.4 nM, otherwise f

>  <compound>
CC(Oc1ccc2[nH]nc(-c3nc4c([nH]3)CNC4)c2c1)c1c(Cl)cncc1Cl (stereo not shown)

>  <category_label>
f

$$$$
>  <compound>
CC(Oc1ccc2[nH]nc(-c3nc4c([nH]3)CN(S(=O)(=O)C3CC3)C4)c2c1)c1c(Cl)cncc1Cl (stereo not shown)

>  <category_label>
f

$$$$
>  <compound>
CC(Oc1ccc2[nH]nc(-c3nc4c([nH]3)CN(C(=O)N3CCOCC3)C4)c2c1)c1c(Cl)cncc1Cl (stereo not shown)

>  <category_label>
t

$$$$
>  <compound>
C[C@@H](Oc1ccc2[nH]nc(-c3nc4c([nH]3)CN(C(=O)CN3CCC(C#N)C3)C4)c2c1)c1c(Cl)cncc1Cl (stereo partly shown)

>  <category_label>
t

$$$$
>  <compound>
C[C@@H](Oc1ccc2[nH]nc(-c3nc4c([nH]3)CN(C(=O)[C@@H]3CCCN3C)C4)c2c1)c1c(Cl)cncc1Cl

>  <category_label>
t

$$$$

Problem: Bench note: check whether CC(Oc1ccc2[nH]nc(-c3nc4c([nH]3)CN(C(=O)CN(C)C)C4)c2c1)c1c(Cl)cncc1Cl (stereo not shown) shows IC50 below 0.4 nM
Result: t

Problem: I'd appreciate it if you could check whether CC(Oc1ccc2[nH]nc(-c3nc4c([nH]3)CN(S(=O)(=O)C(C)C)C4)c2c1)c1c(Cl)cncc1Cl (stereo not shown) has IC50 smaller than 0.4 nM.
Result: t

* * *

test_system: FGFR1 (Homo sapiens)
Construct: purchased Carna 08-133
Sequence (P11362 22-822): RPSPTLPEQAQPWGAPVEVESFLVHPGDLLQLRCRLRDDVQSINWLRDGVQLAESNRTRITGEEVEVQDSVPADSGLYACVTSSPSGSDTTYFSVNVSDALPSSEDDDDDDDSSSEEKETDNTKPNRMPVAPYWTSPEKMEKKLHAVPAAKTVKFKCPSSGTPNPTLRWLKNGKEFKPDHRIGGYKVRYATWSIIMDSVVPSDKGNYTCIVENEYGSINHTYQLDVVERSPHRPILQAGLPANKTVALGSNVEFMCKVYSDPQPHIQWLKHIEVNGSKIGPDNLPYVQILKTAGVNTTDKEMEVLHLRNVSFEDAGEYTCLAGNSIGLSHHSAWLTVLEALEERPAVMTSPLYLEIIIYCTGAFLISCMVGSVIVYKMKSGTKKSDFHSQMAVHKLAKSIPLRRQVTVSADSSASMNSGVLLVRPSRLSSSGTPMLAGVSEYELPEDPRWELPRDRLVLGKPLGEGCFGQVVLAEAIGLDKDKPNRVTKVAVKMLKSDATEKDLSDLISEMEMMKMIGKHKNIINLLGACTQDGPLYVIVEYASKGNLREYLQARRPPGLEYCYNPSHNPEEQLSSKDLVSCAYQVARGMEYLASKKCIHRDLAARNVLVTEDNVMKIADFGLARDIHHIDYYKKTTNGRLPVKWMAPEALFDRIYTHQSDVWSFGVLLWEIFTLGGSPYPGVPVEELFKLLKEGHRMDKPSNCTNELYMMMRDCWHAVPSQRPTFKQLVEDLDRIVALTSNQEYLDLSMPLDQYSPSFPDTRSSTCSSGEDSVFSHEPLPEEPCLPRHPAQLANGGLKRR
protocol_description: Assay II: inhibitory activity against wild-type FGFR (HTRF KinEASE-TK)
Format: biochemical
study_conditions: ATP 50 μM, substrate TK 1 μM
Label true (1) when IC50 < 2 nM; otherwise false (0).

Below are worked cases with known answers.
>  <compound>
CC(Oc1ccc2[nH]nc(-c3nc4c([nH]3)CN(C)C4)c2c1)c1c(Cl)cncc1Cl (centres unmarked)

>  <category_label>
true (1)

$$$$
>  <compound>
CC(Oc1ccc2[nH]nc(-c3nc4c([nH]3)CN(C(=O)N3CCOCC3)C4)c2c1)c1c(Cl)cncc1Cl (centres unmarked)

>  <category_label>
false (0)

$$$$
>  <compound>
CC(Oc1ccc2[nH]nc(-c3nc4c([nH]3)CN(C(=O)N3CC[C@H](O)C3)C4)c2c1)c1c(Cl)cncc1Cl (some centres unmarked)

>  <category_label>
false (0)

$$$$
>  <compound>
CC(Oc1ccc2[nH]nc(-c3nc4c([nH]3)CN(C(=O)N3CCN(C)CC3)CC4)c2c1)c1c(Cl)cncc1Cl (centres unmarked)

>  <category_label>
true (1)

$$$$

Problem: Hi there! Is IC50 for CC(Oc1ccc2[nH]nc(-c3nc4c([nH]3)CN(C(=O)N3CCN(C)CC3)C4)c2c1)c1c(Cl)cncc1Cl (centres unmarked) below 2 nM, do you know?
Result: false (0)
